- EXPERIMENTAL_SETUP: human gut metagenome, 24 h, 2 µM; also: call rule not given here
READOUT_TYPE: Bacterial Biotransformation

MOLECULE	Bacterial Biotransformation
CC(O)(CS(=O)(=O)c1ccc(F)cc1)C(=O)Nc1ccc(C#N)c(C(F)(F)F)c1 (stereo not drawn) [BICALUTAMIDE]	Compound NOT metabolized
C#C[C@]1(O)CC[C@H]2[C@@H]3CCC4=CC(=O)CC[C@@H]4[C@H]3CC[C@@]21CC	Compound metabolized
CCOC(=O)[C@H](CCc1ccccc1)N[C@H]1CCc2ccccc2N(CC(=O)O)C1=O	Compound metabolized
CCOC(=O)[C@H](CCc1ccccc1)N[C@@H](C)C(=O)N1[C@H](C(=O)O)C[C@@H]2CCC[C@@H]21	Compound metabolized

Now look at this one.
QUERY: Given the entry COc1ccccc1N1CCN(CC(O)COc2cccc3ccccc23)CC1 (stereo not drawn) , report its measured Bacterial Biotransformation.
RESULT: Compound NOT metabolized

---

- EXPERIMENTAL_PROTOCOL: The drug is tested on WLS-310 corresponding to human gut metagenome with ENA study accession number: PRJEB37062 and ENA sample accession number: ERS12561785 for biotransformation under anaerobic condition. The drug concentrations were measured over 9 timepoints collected between 0 and 24 hours of incubation by liquid-chromatography-coupled mass spectrometry (LC–MS)
- EXPERIMENTAL_SETUP: 2 µM
READOUT_TYPE: Bacterial Biotransformation

>>> df
                                   molecule                 readout_type            value_reported
0  CCCCC1=NC2(CCCC2)C(=O)N1Cc1ccc(-c2ccccc2-c2nnn[nH]2)cc1 [IRBESARTAN]  Bacterial Biotransformation      Compound metabolized
1  C[C@@H]1C[C@H]2[C@@H]3CCC4=CC(=O)C=C[C@]4(C)[C@@]3(F)[C@@H](O)C[C@]2(C)[C@@]1(O)C(=O)CO [DEXAMETHASONE]  Bacterial Biotransformation      Compound metabolized
2       Cc1cc2c(cc1S(N)(=O)=O)S(=O)(=O)CCC2  Bacterial Biotransformation  Compound NOT metabolized
3  CN1CCC(=C2c3ccccc3CCc3cccnc32)CC1.O=C(O)/C=C\C(=O)O.O=C(O)/C=C\C(=O)O [AZATADINE MALEATE]  Bacterial Biotransformation  Compound NOT metabolized
4  CC(C)(Oc1ccc(CCNC(=O)c2ccc(Cl)cc2)cc1)C(=O)O [BEZAFIBRATE]  Bacterial Biotransformation      Compound metabolized
5  Cc1ccc(/C(=C\CN2CCCC2)c2ccccn2)cc1 [TRIPROLIDINE]  Bacterial Biotransformation  Compound NOT metabolized
6  C[C@@H](CO)NC(=O)[C@@H]1C=C2c3cccc4[nH]cc(c34)C[C@H]2N(C)C1.O=C(O)/C=C\C(=O)O [ERGONOVINE MALEATE]  Bacterial Biotransformation      Compound metabolized
7  OCCOCCN1CCN(C2=Nc3ccccc3Sc3ccccc32)CC1 [QUETIAPINE]  Bacterial Biotransformation  Compound NOT metabolized
8  O=P(O)(O)O.c1ccc(CN(CC2=NCCN2)c2ccccc2)cc1 [ANTAZOLINE PHOSPHATE]  Bacterial Biotransformation  Compound NOT metabolized
9  CC(C)OC(=O)C(C)(C)Oc1ccc(C(=O)c2ccc(Cl)cc2)cc1 [FENOFIBRATE]  Bacterial Biotransformation      Compound metabolized

QUERY: Given the entry CC(=O)OCC(=O)[C@@]1(O)[C@@H](C)C[C@H]2[C@@H]3CCC4=CC(=O)C=C[C@]4(C)[C@@]3(F)[C@@H](O)C[C@@]21C [BETAMETHASONE ACETATE] , report its measured Bacterial Biotransformation.
RESULT: Compound metabolized

QUERY: Consider next the molecule Nc1c2c(nc3ccccc13)CCCC2 [TACRINE] in the same way.
RESULT: Compound metabolized

QUERY: Consider next the molecule CCN(CC)CC#CCOC(=O)C(O)(c1ccccc1)C1CCCCC1.Cl (configuration not stated) [OXYBUTYNIN CHLORIDE] in the same way.
RESULT: Compound metabolized

QUERY: Consider next the molecule O=C1NCC2(CCN(CCc3ccccc3)CC2)O1 [FENSPIRIDE] in the same way.
RESULT: Compound NOT metabolized

QUERY: Consider next the molecule NC(CO)(CO)CO.O=C(c1ccccc1)c1ccc2n1CCC2C(=O)O (configuration not stated) [KETOROLAC TROMETHAMINE] in the same way.
RESULT: Compound metabolized

QUERY: Consider next the molecule NS(=O)(=O)c1cc2c(cc1Cl)N=C(CSCc1ccccc1)NS2(=O)=O [BENZTHIAZIDE] in the same way.
RESULT: Compound NOT metabolized

QUERY: Consider next the molecule CN1C(=O)CC(C)(c2ccccc2)C1=O (configuration not stated) [METHSUXIMIDE] in the same way.
RESULT: Compound NOT metabolized
